Where these numbers come from: patent US10414728B2

Target: human NaV 1.8/β3 (Homo sapiens)
Construct: expressed in transfected cells; host or cells: CHO
Sequence (Q9Y5Y9 whole entry): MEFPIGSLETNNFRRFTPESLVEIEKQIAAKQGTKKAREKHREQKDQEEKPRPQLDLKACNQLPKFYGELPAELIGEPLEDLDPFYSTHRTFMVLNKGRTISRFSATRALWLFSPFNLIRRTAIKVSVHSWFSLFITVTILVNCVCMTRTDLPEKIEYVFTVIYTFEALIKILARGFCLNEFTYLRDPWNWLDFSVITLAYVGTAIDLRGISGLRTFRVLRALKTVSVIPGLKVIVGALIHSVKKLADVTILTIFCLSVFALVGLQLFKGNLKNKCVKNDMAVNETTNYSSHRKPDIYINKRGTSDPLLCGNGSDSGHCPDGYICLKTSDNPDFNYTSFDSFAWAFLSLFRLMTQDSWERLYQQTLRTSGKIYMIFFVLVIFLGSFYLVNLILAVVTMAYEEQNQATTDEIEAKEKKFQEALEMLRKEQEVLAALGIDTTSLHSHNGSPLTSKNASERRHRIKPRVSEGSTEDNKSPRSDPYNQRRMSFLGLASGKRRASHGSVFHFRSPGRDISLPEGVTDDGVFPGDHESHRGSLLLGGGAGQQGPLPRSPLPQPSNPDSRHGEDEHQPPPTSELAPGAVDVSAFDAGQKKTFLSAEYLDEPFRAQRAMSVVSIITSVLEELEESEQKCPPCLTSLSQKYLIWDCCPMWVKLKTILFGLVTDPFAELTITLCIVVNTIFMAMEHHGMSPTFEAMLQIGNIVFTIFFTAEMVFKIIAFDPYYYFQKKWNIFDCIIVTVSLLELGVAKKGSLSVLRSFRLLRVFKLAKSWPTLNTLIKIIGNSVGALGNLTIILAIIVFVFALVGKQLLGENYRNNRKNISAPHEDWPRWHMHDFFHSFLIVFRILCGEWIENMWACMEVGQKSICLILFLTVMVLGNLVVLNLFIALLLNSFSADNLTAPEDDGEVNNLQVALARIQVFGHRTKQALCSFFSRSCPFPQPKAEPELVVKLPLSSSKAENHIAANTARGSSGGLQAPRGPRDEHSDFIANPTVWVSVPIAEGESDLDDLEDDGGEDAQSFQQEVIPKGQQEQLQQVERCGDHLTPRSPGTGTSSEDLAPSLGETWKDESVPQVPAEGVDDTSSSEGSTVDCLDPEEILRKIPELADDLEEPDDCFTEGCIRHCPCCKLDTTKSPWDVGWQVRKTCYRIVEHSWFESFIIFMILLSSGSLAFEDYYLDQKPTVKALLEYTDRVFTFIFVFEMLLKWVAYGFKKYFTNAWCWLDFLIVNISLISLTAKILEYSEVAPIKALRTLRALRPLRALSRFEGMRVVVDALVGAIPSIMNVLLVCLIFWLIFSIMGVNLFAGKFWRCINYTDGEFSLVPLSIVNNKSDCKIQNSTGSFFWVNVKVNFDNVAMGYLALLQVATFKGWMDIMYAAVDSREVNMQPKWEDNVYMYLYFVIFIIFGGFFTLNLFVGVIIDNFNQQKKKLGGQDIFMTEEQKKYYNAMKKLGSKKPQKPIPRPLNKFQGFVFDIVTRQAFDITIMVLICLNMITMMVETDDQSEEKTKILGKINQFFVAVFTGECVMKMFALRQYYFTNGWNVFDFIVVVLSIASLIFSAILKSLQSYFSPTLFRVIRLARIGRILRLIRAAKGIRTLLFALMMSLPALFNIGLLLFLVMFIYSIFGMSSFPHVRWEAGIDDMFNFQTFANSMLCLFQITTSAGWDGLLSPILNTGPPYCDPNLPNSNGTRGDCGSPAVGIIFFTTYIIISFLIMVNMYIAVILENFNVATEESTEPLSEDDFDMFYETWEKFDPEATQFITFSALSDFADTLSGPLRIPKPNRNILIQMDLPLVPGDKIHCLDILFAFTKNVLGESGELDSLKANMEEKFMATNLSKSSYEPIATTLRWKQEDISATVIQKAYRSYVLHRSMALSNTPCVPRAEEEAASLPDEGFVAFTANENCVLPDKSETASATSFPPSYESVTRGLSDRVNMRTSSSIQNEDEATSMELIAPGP
Sequence (Q9NY72 25-215 partner limits assumed): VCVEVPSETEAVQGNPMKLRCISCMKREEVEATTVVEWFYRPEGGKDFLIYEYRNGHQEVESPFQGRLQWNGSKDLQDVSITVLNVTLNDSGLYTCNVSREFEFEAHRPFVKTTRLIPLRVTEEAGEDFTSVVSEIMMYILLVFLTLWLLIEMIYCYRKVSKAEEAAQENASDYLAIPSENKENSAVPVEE
Experiment: Electrophysiology, IonWorks Barracuda, NaV channel block in CHO cells
Type: cell-based
Conditions: IC50 TP2 (inactivated state), Nav1.8, CHO cells, 5 min exposure, ambient temperature
Structures can show the parent of a compound that is named as a salt.
MEASURED_QUANTITY: IC50 (nM)
Numbers only, in nM.

Query: // query IC50 value for entry COC(=O)[C@H](c1ccc(-c2ccccc2)cc1)[C@@H]1C=CCCN1.Cl [EXAMPLE 1C, hydrochloride]
Response: 1900

The following compounds each have a reported value; give each one's IC50.
1. COC(=O)[C@@H](c1ccc(-c2ccccc2)cc1)[C@H]1C=CCCN1 [EXAMPLE 1D, hydrochloride]
2. COC(=O)[C@H](c1ccc(-c2ccccc2)cc1)[C@@H]1C=CCCN1 (racemic) [EXAMPLE 1E]

Response:
1800
1100
